Assay info: NCI Yeast Anticancer Drug Screen. Data for the sgs1 mgt1 strain (AID 161);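 further: 0% = growth of cultures given vehicle only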
Recorded conditions: S. cerevisiae sgs1 mgt1 strain, at 50.0 µM, hits give high values
Description: Growth inhibition of yeast strains with defined genetic alterations is measured as a screen for potential anti-cancer activity. Selected strains with alterations in DNA damage repair or cell cycle control were exposed to compounds and growth inhibition was measured relative to vehicle treated controls. The strain used in this assay is sgs1 mgt1
Compounds without any hit were thinned out: in the full panel of roughly 79,000, 15% have a hit.
Reported endpoint: growth inhibition (%)

INSERT INTO assay_data (compound, meas_value) VALUES
  ('N#CC(=S)Nc1ccc(F)cc1', 30.7),
  ('COc1cc2oc3c(c(=O)c2c(O)c1/C=C/C(C)C)CCC(C)(C)Oc1cc(O)ccc1-3', 49),
  ('CNC(=O)c1cccnc1', -20.6),
  ('COC(=O)C(Cc1nc2ccccc2[nH]c1=O)C(=O)C(=O)Nc1cc(C(F)(F)F)ccc1Cl (stereo unspecified)', 19.4),
  ('N#CC1(C#N)C2CCCCC23OC(=N)C1(C#N)C(c1ccccc1)O3 (stereo unspecified)', -22.7),
  ('COc1ccc2c(=O)c(-c3cc4c(cc3OC)OCO4)coc2c1', -11.3),
  ('COc1cc([C@H]2OC[C@H]3[C@@H]2CO[C@@H]3c2cc(OC)c3c(c2)OCO3)cc(OC)c1OC', 1.25),
  ('COc1ccc(C)cc1NC(=S)C#N', -0.15),
  ('CC1CC(C(=O)OC2OC(COC3OC(CO)C(OC4OC(C)C(O)C(O)C4O)C(O)C3O)C(O)C(O)C2O)C2CCC3(C)C(=CCC4(C)C3CCC3C(C)(CO)C(O)C(O)CC34C)C2C1C (stereo unspecified)', 72.8),
  ('CC1CC(=O)N(N(C)C)C(C#N)(C#N)C1(C#N)C#N (stereo unspecified)', 11.2),
  ('C[C@@H]1C[C@@H]2OC(=O)[C@]3(C)[C@H]2[C@@H](OC3(C)O)[C@]2(C)C(=O)C=C[C@@H]12 (stereo partly specified)', -40.4),
  ('CC(C)(C)c1cc(C2COC(=O)COCCOCC(=O)OCCOCCO2)cc(C(C)(C)C)c1O (stereo unspecified)', -10.4),
  ('CC(=O)C1=C(C)N2C(=NC3=C(CCc4ccccc43)C2c2ccc(Cl)cc2)S1 (stereo unspecified)', 6.85),
  ('CC(=O)C(/C=N/C(N)=O)=C(/C)O', 3.75),
  ('C=C1C(=O)OC2/C=C(\CO)CC/C=C(\CO)CC(OC(=O)C(C)C)C12 (stereo unspecified)', -16),
  ('COc1cc(C)c2c(c1C=O)Oc1c(c(C)c(O)c3c1C(O)OC3=O)OC2=O (stereo unspecified)', 4.85),
  ('CC1CC2(OC2C)C(=O)OC2CCN(C)C/C=C(/COC(=O)C1(C)O)C2=O (stereo unspecified)', 20.9),
  ('CSc1nc(Br)nc2ncn(C3CC(Oc4ccc(C)cc4)C(COc4ccc(C)cc4)O3)c12 (stereo unspecified)', 12.4),
  ('CCn1c2c(c3ccccc3c1=O)C(=O)c1ccccc1-2', 16.8),
  ('Cc1nnc(SCC2=C(C(=O)O)N3C(=O)C(NC(=O)Cn4cnnn4)C3SC2)s1 (stereo unspecified)', 15.6),
  ('Cc1ccc(/C=N/Nc2nncc3ccccc23)s1', 16.7);

---

Collected growth inhibition values appear next to each entry.
Assay info: NCI Yeast Anticancer Drug Screen. Data for the sgs1 mgt1 strain (AID 161);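 further: 0% = growth of cultures given vehicle only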
Recorded conditions: S. cerevisiae sgs1 mgt1 strain, at 50.0 µM, hits give high values
About 79,000 compounds went through this panel and 15% of them were active in at least one assay; those are over-represented in the sample as a whole. The source made the active and inactive calls. No stated cut-off is given here; in the data, active means growth inhibition above about 70%; inactive means the rest.
Reported endpoint: growth inhibition

INSERT INTO results (compound, reported_endpoint, meas_value) VALUES
  ('OCc1ccccc1OC1OC(CO)C(O)C(O)C1O (stereo not given)', 'growth inhibition', '16.4% (inactive)'),
  ('O=C(O)c1cc(C(=O)O)cc([N+](=O)[O-])c1', 'growth inhibition', '4.75% (inactive)'),
  ('C=C1C(=O)OC2CC(C)C3(O)CCC(=O)C3(C)CC12 (stereo not given)', 'growth inhibition', '-5.2% (inactive)'),
  ('[O-]c1ccccc1/C=N/C(/N=C/c1ccccc1[O-])c1ccccc1O.[O-]c1ccccc1/C=N/C(/N=C/c1ccccc1[O-])c1ccccc1O.[Zr+4]', 'growth inhibition', '-1.6% (inactive)'),
  ('NNc1[nH]c(=S)[nH]c1C(N)=O', 'growth inhibition', '-21.4% (inactive)'),
  ('C=CC(COC(=O)C(C)(C)OC(C)=O)c1ccc(OC(=O)C(C)C)c(OC)c1 (stereo not given)', 'growth inhibition', '20.4% (inactive)'),
  ('CC1(C)S[C@H](CN)N[C@H]1C(=O)OC(c1ccccc1)c1ccccc1', 'growth inhibition', '5.25% (inactive)'),
  ('Cc1ccc(OC2CC(n3cnc4ncnc(Cl)c43)OC2Oc2ccc(C)cc2)cc1 (stereo not given)', 'growth inhibition', '13.9% (inactive)'),
  ('CCC(c1ccc(N(C)C)cc1)C1NC(=S)NC1=O (stereo not given)', 'growth inhibition', '-17.6% (inactive)'),
  ('O=C(Nc1cccc(NC(=O)C(=O)C2CCC3=C(Sc4ccccc4N3)C2=O)n1)C(=O)C1CCC2=C(Sc3ccccc3N2)C1=O (stereo not given)', 'growth inhibition', '3% (inactive)');

---

Items are presented alongside their recorded growth inhibition.
Assay info: NCI Yeast Anticancer Drug Screen. Data for the rad50 strain (AID 155);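 further: 0% = growth of vehicle-only cultures of the same strain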
Recorded conditions: S. cerevisiae rad50 strain growth inhibition; at 50.0 µM; hits give high values
This is part of a sample that, as a whole, favours compounds with a hit. Of some 79,000 tested, about 15% had one in any assay.
Reported endpoint: growth inhibition (%)

INSERT INTO results (compound, meas_value) VALUES
  ('Cc1cc(Cl)ccc1NCN1C(=O)c2ccccc2C1=O', -6.8),
  ('CSc1nc(Br)nc2ncn(C3CC(Oc4ccc(C)cc4)C(COc4ccc(C)cc4)O3)c12 (stereo unspecified)', 16.7),
  ('S=C(S)NC1CCCCCCCCCCC1', 45.8),
  ('COc1cc(/C=N/NC(=O)c2cccs2)cc(OC)c1OC', -12.8),
  ('O=C1Nc2ccccc2/C1=N/N=C/c1cc(Cl)cc(Cl)c1O', 32.7),
  ('Nc1nc(N)nc(-c2ccccc2Cl)n1', 3.65),
  ('COc1ccc(C(C#N)N2CCOCC2)cc1 (stereo unspecified)', 17.8),
  ('COC(=O)C(C(=O)C(=O)NC1Nc2ccc(C)cc2S1)c1nc2ccc(Cl)cc2[nH]c1=O (stereo unspecified)', 18.2),
  ('O=C(NC1=NC2C=CC([N+](=O)[O-])=CC2S1)C(=O)Nn1c(=S)[nH]c2ccccc2c1=O (stereo unspecified)', 6.8),
  ('COc1cc2c(cc1C1COc3cc4occc4cc3C1=O)OCO2 (stereo unspecified)', 5.15),
  ('CC(=O)C1=C(C)N2C(=NC3=C(CCc4ccccc43)C2c2ccc(Cl)cc2)S1 (stereo unspecified)', 25.9);

---

Assay info: NCI Yeast Anticancer Drug Screen. Data for the mec2-1 strain (AID 157)
Recorded conditions: S. cerevisiae mec2-1 strain, at 50.0 µM, hits give high values
Compounds without any hit were thinned out: in the full panel of roughly 79,000, 15% have a hit.
Lab note: compare growth inhibition against -20%. Equal or greater, write 1. Smaller, write -1.

INSERT INTO results (molecule, class_label) VALUES
  ('O=C1c2ccccc2C(=O)N1/N=C/c1cc(Br)ccc1O', 1),
  ('O=CNC(Cc1ccc(O)cc1)C(=O)O (centres undefined)', -1),
  ('CCCCCCCCCCCC(=O)CCCCC', 1),
  ('COC(=O)CCNCc1ccccc1', -1),
  ('Cc1n[nH]c(=O)n(/N=C\c2c[nH]c3ccccc23)c1=O', 1),
  ('Nc1n[nH]c(=S)n1-c1ccc(Cl)cc1', -1),
  ('O=C(O)c1n[nH]nc1Cl', 1),
  ('O=C1NC(c2ccc3ccccc3c2)Nc2ccccc21 (centres undefined)', 1),
  ('CCOc1ccc(NC(=S)NC2CCCCCCCCCCC2)cc1', 1),
  ('c1ccc(-c2cccc3ccccc23)cc1', 1),
  ('COc1ccc(N=c2ssc(SC)c2-c2ccccc2)cc1', 1),
  ('COC(=O)C(=O)C(C(=O)C(=O)Nc1ccccc1OC)c1nc2ccc([N+](=O)[O-])cc2[nH]c1=O (centres undefined)', 1),
  ('O=C1Nc2ccccc2CCc2ccccc21', -1);

---

Assay info: NCI Yeast Anticancer Drug Screen. Data for the mec2-1 strain (AID 157)
Recorded conditions: S. cerevisiae mec2-1 strain, at 50.0 µM, hits give high values
The panel holds about 79,000 compounds, 15% with a hit somewhere; the sample as a whole holds those more often.
Returns T if the recorded growth inhibition is greater than or equal to -10%, and F otherwise.

INSERT INTO results (compound, class_label) VALUES
  ('COc1ccc(NC(=S)Nc2ccccn2)cc1', 'F'),
  ('Cc1ccccc1NC(=S)Nc1ccccn1', 'T'),
  ('C=C1C(=O)OC2/C=C(\CO)CC/C=C(\CO)CC(OC(=O)C(C)C)C12 (configuration not stated)', 'F'),
  ('COc1ccc(NC(=S)N(C)C)cc1', 'F'),
  ('COc1ccc(COC(=O)N=[N+]=[N-])cc1', 'T'),
  ('N#CC1(c2ccc(Cl)cc2)CCCC1', 'F');
